Data origin: the supplement of paper PMC9170038

# System: MS2 coat protein
# protocol.description: apparent KD of MS2 coat protein; designed switch direction (-1 OFF switch, 1 ON switch): -1; higher = weaker reporter binding
# study.conditions: input ligand: none
measure: apparent KD of MS2 coat protein (nM)
State just the number; it will be interpreted in nM.

Example cases with answers are listed next.
macromolecule.sequence: AGAUUACAUGAGGAUCACCCAUGUCAGGAUAUCGACUGAACAGCUUCGGCUGUUCAGUCGAGAAGGGACAAUUA [Brourdxlusion 10 - Jieux - Exclusion 1] (Eterna round: R97, puzzle: Exclusion 1)
units.label: nM
apparent KD of MS2 coat protein: 59.7

macromolecule.sequence: UCCCAACAUGAGGAUCACCCAUGUAAGGAUAUCCAUGGACGACGGCAUUGUUCCCGGCGGAGAAGGUGCAUGGU [EX1 B.21] (Eterna round: R97, puzzle: Exclusion 1)
units.label: nM
apparent KD of MS2 coat protein: 27.6

Consider the record given below.
Quick note, apparent KD of MS2 coat protein for CCGGUGUGAGGAUAUCCAUCUGGAUCAGACUAGAUCCUGAUGGAGAAGGCACAUGAGGAUCACCCAUGUUACGG [Eli 4x 4.42] (Eterna round: R97, puzzle: Exclusion 4) landed at 656
